# Tested on: 429239-143-T-J1-PDC complex spheroid viability;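 also: luminescence signal used as surrogate measure of viable cells; spheroids exposed to compounds for seven days before readout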
# Assay remarks: Anticancer human tumor 429239-143-T-J1-PDC patient-derived small cell lung carcinoma cell line growth inhibition [POLQ]
# Test settings: second compound 0.316 µM; first compound 0.1 µM; active compounds read low
Decide using viability, T/C alone. Strictly below 80%: Criterion met. Equal to or above 80%: Criterion not met.

>>> assigned_category("COc1cc2cc(C(=O)CCC(=O)O)sc2cc1OC + Cc1cccc(N(C)C(=O)C2C(O)CCN2c2nc(C)cc(C(F)(F)F)c2C#N)c1")
"Criterion not met"
>>> assigned_category("C#Cc1c(F)ccc2cc(O)cc(-c3ncc4c(N5CC6CCC(C5)N6)nc(OCC56CCCN5CC(F)C6)nc4c3F)c12 (stereo not given) + COC1C(OC(N)=O)C(O)C(Oc2ccc3c(O)c(NC(=O)c4ccc(O)c(CC=C(C)C)c4)c(=O)oc3c2C)OC1(C)C")
"Criterion not met"
>>> assigned_category("Nc1ccn(C2OC(CO)C(O)C2(F)F)c(=O)n1 (stereo not given) + Cc1cccc(N(C)C(=O)C2C(O)CCN2c2nc(C)cc(C(F)(F)F)c2C#N)c1")
"Criterion met"
>>> assigned_category("O=C(Nc1ccc(O)c(NS(=O)(=O)c2ccc(F)cc2)c1)c1ccc(-c2ccccc2)cc1 + COC1C(OC(N)=O)C(O)C(Oc2ccc3c(O)c(NC(=O)c4ccc(O)c(CC=C(C)C)c4)c(=O)oc3c2C)OC1(C)C")
"Criterion not met"
>>> assigned_category("COc1cc2cc(C(=O)CCC(=O)O)sc2cc1OC + COC1C(OC(N)=O)C(O)C(Oc2ccc3c(O)c(NC(=O)c4ccc(O)c(CC=C(C)C)c4)c(=O)oc3c2C)OC1(C)C")
"Criterion not met"
